test system: HCC-2998 colon; assay: NCI tumour cell line growth inhibition, 48 h
REPORTED METRIC: TGI

compound=C/C(O)=C/c1nc2ccccc2[nH]1 test_target="HCC-2998 colon" test_value="> 100 µM"
compound="COC(=O)C1CC2C=CC1N(C(=O)OCc1ccccc1)C2 (stereo not drawn)" test_target="HCC-2998 colon" test_value="> 100 µM"
compound=CN([O-])c1nc(N(C)[O-])nc(N2CCOCC2)n1.CN([O-])c1nc(N(C)[OH2+])nc(N2CCOCC2)n1.[Fe+3] test_target="HCC-2998 colon" test_value="> 100 µM"

---

// reported GI50 for each item listed
tested on: HL-60(TB) leukemia; experiment: NCI tumour cell line growth inhibition, 48 h
REPORTED METRIC: GI50

molecule=Cn1cc(C2=C(c3cn(CCCO)c4ccccc34)C(=O)NC2=O)c2ccccc21 test_value="6.1 µM"
molecule="Cc1ccc(-c2cc(C(=O)N3N=C(c4ccc(N)cc4)CC3c3ccc(Cl)cc3)c3ccccc3n2)cc1 (stereo not drawn)" test_value="3.49 µM"
molecule=O=C(C[Si](CC(=O)c1cccc(C(F)(F)F)c1)CC(=O)c1cccc(C(F)(F)F)c1)c1cccc(C(F)(F)F)c1 test_value="2.52 µM"
molecule=Cc1c(C(N)=O)sc2c1c(=O)n(Cc1ccccc1)c1nnc(SCC(=O)Nc3ccc(Cl)cc3)n21 test_value="> 100 µM"
molecule=CC(=O)[CH-]C(C)=O.CC(=O)[CH-]C(C)=O.[CH2-]CCCCCCC.[CH2-]CCCCCCC.[Sn+4] test_value="21.1 µM"
molecule=CN1CCN(c2ccc3nc(-c4c5cccccc-5[nH]c4=O)[nH]c3c2)CC1 test_value="13.7 µM"
molecule="COC(=O)C(N)CSC(c1ccccc1)(c1ccccc1)c1ccccc1 (stereo not drawn)" test_value="1.82 µM"
molecule=Cc1cc(Nc2cccc(F)c2)nc(NCc2ccccc2)n1 test_value="3.91 µM"

---

Here the recorded TGI is given for each entry.
test system: MDA-MB-435; assay: NCI tumour cell line growth inhibition, 48 h
REPORTED METRIC: TGI

compound="CCOC(=O)C(NC(=O)CC(C)C)(NC(C)C)C(F)(F)F (stereo not given)" test_value="> 100 µM"
compound=Cc1cc(C)c(C#N)c(SC(=S)NC(=O)c2ccc(Cl)cc2)n1 test_value="> 100 µM"
compound="COC(=O)CC1C(C)(C)C(=O)C2CC3=C4CC(=O)OC(c5ccoc5)C4(C)CCC3C1(C)C2=O (stereo not given)" test_value="> 100 µM"
compound=N#Cc1c(N)nc(Nc2cccc3ccccc23)c(C#N)c1C#N test_value="> 10 µM"
compound="Clc1ccc(/C=C2\\CCCC3C2=Nc2ccccc2NC3c2ccc(Cl)cc2)cc1 (stereo not given)" test_value="> 27.6 µM"

---

tested on: SN12C renal; test: NCI tumour cell line growth inhibition, 48 h
REPORTED METRIC: TGI

compound=Brc1ccc(N=NN2CCCC2)cc1 reported_metric=TGI test_value="> 100 µM"
compound=CCCCNc1nc(N)nc(Nc2ccc(Br)cc2)c1N=O reported_metric=TGI test_value="> 100 µM"
compound=Cc1cccc(C)c1NC(=O)/C(Cc1nc2ccc([N+](=O)[O-])cc2[nH]c1=O)=N\NC(N)=O reported_metric=TGI test_value="> 100 µM"
compound=Cc1cccc(C)c1NC(=O)CCC(=O)CC(=O)C(C)C reported_metric=TGI test_value="> 100 µM"
compound=CC(=O)c1c(P(=O)(OC(C)C)OC(C)C)nn(-c2ccc([N+](=O)[O-])cc2)c1C reported_metric=TGI test_value="> 100 µM"
compound=COc1ccc(/C=C/C(=O)c2cccc(B(O)O)c2)cc1O reported_metric=TGI test_value="25.7 µM"
compound=Cn1cc(C2=C(c3cn(CCSC(=N)N)c4ccccc34)C(=O)NC2=O)c2ccccc21 reported_metric=TGI test_value="6.37 µM"
compound="NC1CSc2ccccc2NC1=O (stereo not given)" reported_metric=TGI test_value="> 100 µM"
compound="NC(CSS(=O)(=O)c1ccccc1)C(=O)O (stereo not given)" reported_metric=TGI test_value="> 10 µM"
compound="CCOC(=O)C(NC(=O)CC(C)C)(NC(C)C)C(F)(F)F (stereo not given)" reported_metric=TGI test_value="> 100 µM"
